- assay system: T1, Cynomolgus CD3εδ Fc heterodimer (Cy CD3ε Fc / CD3δ Fc-HIS) (cynomolgus, UniProt Q95LI8 22-100)
- T1 chain 1: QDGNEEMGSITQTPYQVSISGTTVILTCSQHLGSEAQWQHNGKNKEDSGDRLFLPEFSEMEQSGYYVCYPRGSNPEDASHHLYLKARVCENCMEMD
- T1 chain 2: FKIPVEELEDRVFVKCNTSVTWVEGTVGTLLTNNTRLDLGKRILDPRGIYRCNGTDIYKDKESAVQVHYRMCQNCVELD
- method description: BLI (Octet), IgG on AHC sensor, pH 6.0

- binder: "SAD10319_P04_D11 (ADI-57337) (antibody, V domains shown, IgG; also called Ab35) VH: QVQLVQSGAEVKKPGASVKVSCKASGYTFNSYRMHWVRQAPGQRLEWMGSIDAGTGNTKYSQKFQGRVTITRDTSASTAYMELSSLRSEDTAVYYCARDAYGRYFYDHWGQGTLVTVSS VL: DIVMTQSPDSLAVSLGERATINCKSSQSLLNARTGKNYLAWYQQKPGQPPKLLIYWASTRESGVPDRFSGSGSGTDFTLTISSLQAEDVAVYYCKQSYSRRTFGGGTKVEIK"
  koff / s⁻¹: 0.00339
- binder: "SAD10319_P02_G05 (ADI-57318) (antibody, V domains shown, IgG; also called Ab6) VH: QVQLVQSGAEVKKPGASVKVSCKASGYTFTQYTMHWVRQAPGQRLEWMGSIDAGTGATKYSQKFQGRVTITRDTSASTAYMELSSLRSEDTAVYYCARDAYHHYFYDVWGQGTLVTVSS VL: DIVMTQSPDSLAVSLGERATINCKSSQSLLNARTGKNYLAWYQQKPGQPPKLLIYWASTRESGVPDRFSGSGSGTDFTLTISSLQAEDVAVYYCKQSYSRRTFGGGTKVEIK"
  koff / s⁻¹: 0.00475
- binder: "SAD10320_P01_E03 (ADI-57357) (antibody, V domains shown, IgG; also called Ab64) VH: QVQLVQSGAEVKKPGASVKVSCKASGFNIKDYYMHWVRQAPGQRLERMGWIDLENANTIYDAKFQGRVTITRDTSASTAYMELSSLRSEDTAVYYCARDAYGHGFYDVWGQGTLVTVSS VL: DIVMTQSPDSLAVSLGERATINCKSSQSLLNARTGKNYLAWYQQKPGQPPKLLIYWASTRESGVPDRFSGSGSGTDFTLTISSLQAEDVAVYYCKQSYRHRTFGGGTKVEIK"
  koff / s⁻¹: 0.0223
- binder: "SAD10319_P04_A10 (ADI-57331) (antibody, V domains shown, IgG; also called Ab29) VH: QVQLVQSGAEVKKPGASVKVSCKASGYTFTSDAMHWVRQAPGQRLAWMGYINAGTGTTKYSQKFQGRVTITRDTSASTAYMELSSLRSEDTAVYYCAHDAYGHYFYDVWGQGTLVTVSS VL: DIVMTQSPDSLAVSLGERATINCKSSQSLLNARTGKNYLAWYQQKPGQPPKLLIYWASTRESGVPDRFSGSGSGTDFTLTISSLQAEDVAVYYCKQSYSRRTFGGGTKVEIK"
  koff / s⁻¹: 0.0262
- binder: "LAD9959_P01_E04 (ADI-57441) (antibody, V domains shown, IgG; also called Ab172) VH: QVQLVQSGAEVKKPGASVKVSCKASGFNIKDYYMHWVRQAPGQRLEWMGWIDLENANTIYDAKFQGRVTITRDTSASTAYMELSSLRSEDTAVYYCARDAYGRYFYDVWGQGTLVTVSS VL: DIVMTQSPDSLAVSLGERATINCKSSQSLLNARTHHNYLAWYQQKPGQPPKLLIYWASTRESGVPDRFSGSGSGTDFTLTISSLQAEDVAVYYCKQSYSRRTFGGGTKVEIK"
  koff / s⁻¹: 0.00174
- binder: "SAD10320_P01_E02 (ADI-57349) (antibody, V domains shown, IgG; also called Ab55) VH: QVQLVQSGAEVKKPGASVKVSCKASGFNIKDYYMHWVRQAPGQRLAWMGWIDLENANTIYDAKFQGRVTITRDTSASTAYMELSSLRSEDTAVYYCARDAYGRHFYDVWGQGTLVTVSS VL: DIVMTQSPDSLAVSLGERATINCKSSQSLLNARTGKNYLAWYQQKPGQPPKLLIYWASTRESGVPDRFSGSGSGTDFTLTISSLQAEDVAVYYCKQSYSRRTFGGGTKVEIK"
  koff / s⁻¹: 0.00585
- binder: "SAD10319_P02_B04 (ADI-57308) (antibody, V domains shown, IgG; also called Ab249) VH: QVQLVQSGAEVKKPGASVKVSCKASGYTFADYAMHWVRQAPGQRLEWMGWINPGTGSTKYSQKFQGRVTITRDTSASTAYMELSSLRSEDTAVYYCARDAYGHYFYDHWGQGTLVTVSS VL: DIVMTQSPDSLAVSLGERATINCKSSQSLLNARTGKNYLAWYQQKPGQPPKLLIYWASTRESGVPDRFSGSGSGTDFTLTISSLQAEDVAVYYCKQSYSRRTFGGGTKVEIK"
  koff / s⁻¹: 0.0203
- binder: "SAD10320_P03_H08 (ADI-57379) (antibody, V domains shown, IgG; also called Ab97) VH: QVQLVQSGAEVKKPGASVKVSCKASGFNIKDYYMHWVRQAPGQRLEWMGWIDLENANTIYDAKFQGRVTITRDTSASTAYMELSSLRSEDTAVYYCARDAYGHVFYDVWGQGTLVTVSS VL: DIVMTQSPDSLAVSLGERATINCKSSQSLLNASTAKNYLAWYQQKPGQPPKLLIYWASTRESGVPDRFSGSGSGTDFTLTISSLQAEDVAVYYCKQSYRHRTFGGGTKVEIK"
  koff / s⁻¹: 0.015
- binder: "SAD10319_P01_D03 (ADI-57306) (antibody, V domains shown, IgG; also called Ab245) VH: QVQLVQSGAEVKKPGASVKVSCKASGYTFTSYNMHWVRQAPGQRLEWMGWIDAGTGATHYSQKFQGRVTITRDTSASTAYMELSSLRSEDTAVYYCARDAYHHYFYDVWGQGTLVTVSS VL: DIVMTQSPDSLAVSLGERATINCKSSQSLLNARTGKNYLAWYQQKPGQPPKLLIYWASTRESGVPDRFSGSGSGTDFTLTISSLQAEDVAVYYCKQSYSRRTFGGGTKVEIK"
  koff / s⁻¹: 0.00221
- binder: "SAD10320_P03_F08 (ADI-57378) (antibody, V domains shown, IgG; also called Ab96) VH: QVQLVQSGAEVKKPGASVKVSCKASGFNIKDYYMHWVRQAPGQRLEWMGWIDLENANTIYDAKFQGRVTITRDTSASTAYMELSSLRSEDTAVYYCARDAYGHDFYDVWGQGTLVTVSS VL: DIVMTQSPDSLAVSLGERATINCKSSQSLLNARPGKNYLAWYQQKPGQPPKLLIYWASTRESGVPDRFSGSGSGTDFTLTISSLQAEDVAVYYCKQSYSRRTFGGGTKVEIK"
  koff / s⁻¹: 0.00268
